This collection of values is drawn from paper PMC3523390.

- target or test system: hPPARγ (Homo sapiens, UniProt P37231)
- Sequence (P37231 1-477 isoform P37231-2): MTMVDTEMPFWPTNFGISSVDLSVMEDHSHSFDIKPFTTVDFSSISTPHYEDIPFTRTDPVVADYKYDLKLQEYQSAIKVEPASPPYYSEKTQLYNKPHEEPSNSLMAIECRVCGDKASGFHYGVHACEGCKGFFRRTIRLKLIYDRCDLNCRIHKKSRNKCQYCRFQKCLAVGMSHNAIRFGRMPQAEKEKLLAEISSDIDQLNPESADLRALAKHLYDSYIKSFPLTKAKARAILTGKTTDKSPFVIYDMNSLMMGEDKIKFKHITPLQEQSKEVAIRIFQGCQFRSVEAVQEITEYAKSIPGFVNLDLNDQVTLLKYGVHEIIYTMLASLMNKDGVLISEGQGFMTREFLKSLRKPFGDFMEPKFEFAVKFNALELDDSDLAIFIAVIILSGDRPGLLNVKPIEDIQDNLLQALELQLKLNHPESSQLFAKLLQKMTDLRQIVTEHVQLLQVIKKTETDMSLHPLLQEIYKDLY
- assay protocol: PPAR luciferase reporter gene transactivation in HEK-293 cells
- condition context: read-out: hPPARγ EC50; HEK-293, 18 h; N.D. = not detected up to 100 μM
reported property: pEC50
Reminder that pEC50 means the negative base-10 logarithm of the concentration expressed in mol/L.

{"columns": ["compound", "pEC50"],
 "data": [
  ["C=CCc1cc(OC)c(O)c(-c2cc(CC=C)cc(OC)c2O)c1 [Compound 1, dieugenol]", 6.21]
]}

Observed pEC50, hPPARγ (Homo sapiens, UniProt P37231), CCCc1cc(OC)c(O)c(-c2cc(CCC)cc(OC)c2O)c1 [Compound 2, tetrahydrodieugenol] : 6.48
